Test system: UACC-257
Assay: Growth inhibition of human UACC257 cells after 48 hrs by sulforhodamine B assay
Format: functional
Conditions: UACC-257, 48 h
Kindly supply the reported GI50 values for the records listed here.
Give just the numeric value; nM need not be written.

Task: Query (compound): COc1cc2c(cc1OCCCCOc1ccc(-c3nc4ccccc4s3)cc1)N=C[C@@H]1CCCN1C2=O ; field requested: GI50
Result: 2190

Task: Item: COc1cc(-c2nc3ccccc3s2)ccc1OCCCCOc1cc2c(cc1OC)C(=O)N1CCC[C@H]1C=N2
Result: 2190

Task: Item: COc1cc(-c2nc3ccccc3s2)ccc1OCCCCCOc1cc2c(cc1OC)C(=O)N1CCC[C@H]1C=N2
Result: 186

Task: Item: COc1cc2c(cc1OCCCCCOc1ccc(-c3nc4ccccc4s3)cc1)N=C[C@@H]1CCCN1C2=O
Result: 2240

Task: Item: COc1cc2c(cc1OCCCCC(=O)Nc1ccc(-c3nc4ccccc4s3)cc1)N=C[C@@H]1CCCN1C2=O
Result: 1740

###

Kindly supply the reported log10 of GI50 values for the records listed here.
Test system: HT-29
Experiment: Growth inhibition of human HT-29 cells after 48 hrs by sulforhodamine B assay
Type: functional
Details: HT-29, 48 h
# values: log10(GI50), units nM

Task: Give log10 of GI50 (HT-29) of the following molecule: COc1cc(-c2nc3ccccc3s2)ccc1OCCCCCOc1cc2c(cc1OC)C(=O)N1CCC[C@H]1C=N2
Result: 1.61

Task: Item: COc1cc2c(cc1OCCCCC(=O)Nc1ccc(-c3nc4ccccc4s3)cc1)N=C[C@@H]1CCCN1C2=O
Result: 3.33

Task: Item: COc1cc2c(cc1OCCCCCOc1ccc(-c3nc4ccccc4s3)cc1)N=C[C@@H]1CCCN1C2=O
Result: 2.66

Task: Item: COc1cc(-c2nc3ccccc3s2)ccc1OCCCCOc1cc2c(cc1OC)C(=O)N1CCC[C@H]1C=N2
Result: 2.73

Task: Item: COc1cc2c(cc1OCCCCOc1ccc(-c3nc4ccccc4s3)cc1)N=C[C@@H]1CCCN1C2=O
Result: 2.58

###

Tested on: Calf thymus DNA
Test: Binding affinity to calf thymus duplex-form DNA assessed as melting temperature at 1:5 compound/DNA ratio after 18 hrs
Format: nucleic-acid assay
Details: Bos taurus
Property: ΔTm (°C)
Give just the numeric value; °C need not be written.

Task: Give ΔTm (Calf thymus DNA) of the following compound: COc1cc2c(cc1OCCCCOc1ccc(-c3nc4ccccc4s3)cc1)N=C[C@@H]1CCCN1C2=O
Result: 0.5

Task: Item: COc1cc2c(cc1OCCCCCOc1ccc(-c3nc4ccccc4o3)cc1)N=C[C@@H]1CCCN1C2=O
Result: 4.3

Task: Item: COc1cc(-c2nc3ccccc3o2)ccc1OCCCCCOc1cc2c(cc1OC)C(=O)N1CCC[C@H]1C=N2
Result: 4.2

Task: Item: COc1cc(-c2nc3ccccc3s2)ccc1OCCCCOc1cc2c(cc1OC)C(=O)N1CCC[C@H]1C=N2
Result: 0.5

###

Tested on: EKVX
Assay: Growth inhibition of human EKVX cells after 48 hrs by sulforhodamine B assay
Type: functional
Lab note: cut-off is 2000 nM. Strictly less in GI50 is Fulfilled. Exactly 2000 nM or more is Not fulfilled.

Task: Lab log: compare recorded GI50 with 2000 nM; is it strictly lower for COc1cc2c(cc1OCCCCOc1ccc(-c3nc4ccccc4s3)cc1)N=C[C@@H]1CCCN1C2=O ?
Result: Fulfilled

Task: Item: COc1cc2c(cc1OCCCCC(=O)Nc1ccc(-c3nc4ccccc4s3)cc1)N=C[C@@H]1CCCN1C2=O
Result: Not fulfilled

Task: Item: COc1cc2c(cc1OCCCCCOc1ccc(-c3nc4ccccc4s3)cc1)N=C[C@@H]1CCCN1C2=O
Result: Fulfilled

Task: Item: COc1cc(-c2nc3ccccc3s2)ccc1OCCCCOc1cc2c(cc1OC)C(=O)N1CCC[C@H]1C=N2
Result: Fulfilled

Task: Item: COc1cc(-c2nc3ccccc3s2)ccc1OCCCCCOc1cc2c(cc1OC)C(=O)N1CCC[C@H]1C=N2
Result: Fulfilled

# credit: ChEMBL document CHEMBL1177643
